System: cocklebur
Assay: Test B pre-/postemergence herbicide test
Format: in vivo, Xanthium strumarium
Conditions: Postemergence, 500 g ai/ha; visual rating after 13 to 15 days, scale 0 (no effect) to 100 (complete control)
Description: […] At the same time, plants selected from these crop and weed species and also blackgrass (Alopecurus myosuroides Huds.), wheat (Triticum aestivum L.) and wild oat (Avena fatua L.) were treated with postemergence applications of test chemicals formulated in the same manner. […] Treated plants and controls were maintained in a greenhouse for 13 to 15 days, after which time all species were compared to controls and visually evaluated. […]
Here, each record is paired with measured Plant response rating, Cocklebur data.

compound: CCOC(=O)c1cc(NC(=O)c2cc(C(C)(C)C)nn2CC)ccc1F [Compound 89]
Plant response rating, Cocklebur: 90
//
compound: CCn1nc(C(C)(C)C)cc1C(=O)Nc1cccc(C(=O)NCC(C)C)c1 [Compound 61]
Plant response rating, Cocklebur: 100
//
compound: CCn1nc(C(C)(C)C)cc1C(=O)Nc1cccc(C(=O)OCCF)c1C [Compound 91]
Plant response rating, Cocklebur: 10
//
compound: CCOC(=O)c1cc(NC(=O)c2cc(C(C)(C)C)nn2CC)c(F)cc1OC [Compound 76]
Plant response rating, Cocklebur: 90
//
compound: CCN1CCc2c(NC(=O)c3cc(C(C)(C)C)nn3CC)cccc2C1=O [Compound 63]
Plant response rating, Cocklebur: 70
//
compound: CON=C(C)c1cccc(NC(=O)c2cc(C(C)(C)C)nn2C)c1 [Compound 106]
Plant response rating, Cocklebur: 50
